Reported pIC50 values for a set of compounds
molecular target: human PD-1 / PD-L1-Ig binding on Jurkat cell line over-expressing human PD-1 (Jurkat-PD-1) (Homo sapiens); construct: expressed in transfected cells; host or cells: Jurkat; experiment: Jurkat-PD-1 Cell Binding High-Content Screening Assay (CBA); type: cell-based; conditions: Jurkat-PD-1 cells, PE-labeled PD-L1-Ig 20 nM final; read-out: Jurkat HPD1_PDL1 IC50
Sequence (Q15116 25-288): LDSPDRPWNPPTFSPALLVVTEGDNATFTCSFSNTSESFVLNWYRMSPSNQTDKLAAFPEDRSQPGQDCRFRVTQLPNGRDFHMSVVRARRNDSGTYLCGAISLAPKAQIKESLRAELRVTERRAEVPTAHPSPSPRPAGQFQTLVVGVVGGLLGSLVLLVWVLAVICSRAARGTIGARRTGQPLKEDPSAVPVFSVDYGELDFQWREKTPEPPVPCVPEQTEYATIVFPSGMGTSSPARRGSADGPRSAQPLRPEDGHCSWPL
Where a SMILES comes first, the peptide text is derived from it. Bridges are numbered along the chain shown (N, C = ends). [ ]: non-standard residue; d: D form. ξ: configuration not given here. Bip = N[C@@H](Cc1ccc(-c2ccccc2)cc1)C(=O)O; ξIle = CC[C@H](C)C(N)C(=O)O; Dab = NCC[C@H](N)C(=O)O; Dap = NC[C@H](N)C(=O)O
On this scale, pIC50 is minus log10 of a concentration expressed in M (mol/L).

COMPOUND	pIC50
CCCC[C@@H]1NC(=O)[C@H](CCN)NC(=O)[C@@H](CC(C)C)NC(=O)[C@H](CCCN)NC(=O)[C@H]([C@@H](C)CC)NC(=O)[C@H](Cc2ccc(-c3ccccc3)cc2)NC(=O)[C@H](C(C)C)NC(=O)[C@H](Cc2cccc(C)c2)NC(=O)[C@H](CC(=O)O)NC(=O)[C@H](Cc2ccc(OCC(=O)O)cc2)NC(=O)[C@H](CN)NC(=O)CSC[C@@H](C(=O)N[C@@H](C)C(N)=O)NC(=O)[C@H]([C@@H](C)O)NC(=O)[C@H](C(C)C)NC1=O	8.00

# evaluate next
Lab note: CC[C@H](C)C1NC(=O)[C@H](Cc2ccc(-c3ccccc3)cc2)NC(=O)[C@H](C(C)C)NC(=O)[C@H](Cc2c[nH]c3ccccc23)NC(=O)[C@H](CC(N)=O)NC(=O)[C@H](Cc2ccc(O)cc2)NC(=O)[C@H](CN)NC(=O)CSC[C@@H](C(=O)N[C@@H](C)C(N)=O)NC(=O)[C@H]([C@@H](C)O)NC(=O)[C@H](C(C)C)NC(=O)[C@H](CC(C)C)NC(=O)[C@H](CCN)NC(=O)[C@@H](CC(C)C)NC(=O)[C@H](CN)NC1=O (stereo partly drawn) [Compound 1089] ({CH2CO}-[Dap]YNWV[Bip][ξIle][Dap][dL][Dab]LVTCA-NH2; thioether N-14) gave pIC50 of 7.57
